List of IC50 values.
molecular target: DYRK3 (Homo sapiens); construct: purchased Carna Biosciences, Inc. 04-133; experiment: Inhibition test on activity of DYRK family, mobility shift assay (MSA): DYRK3; format: biochemical; conditions: MSA, FITC-labeled DYRKtide peptide, ATP 20 μM; read-out: Inhibitory activity DYRK 3 (IC50 class)
Sequence (O43781 1-568 isoform O43781-2): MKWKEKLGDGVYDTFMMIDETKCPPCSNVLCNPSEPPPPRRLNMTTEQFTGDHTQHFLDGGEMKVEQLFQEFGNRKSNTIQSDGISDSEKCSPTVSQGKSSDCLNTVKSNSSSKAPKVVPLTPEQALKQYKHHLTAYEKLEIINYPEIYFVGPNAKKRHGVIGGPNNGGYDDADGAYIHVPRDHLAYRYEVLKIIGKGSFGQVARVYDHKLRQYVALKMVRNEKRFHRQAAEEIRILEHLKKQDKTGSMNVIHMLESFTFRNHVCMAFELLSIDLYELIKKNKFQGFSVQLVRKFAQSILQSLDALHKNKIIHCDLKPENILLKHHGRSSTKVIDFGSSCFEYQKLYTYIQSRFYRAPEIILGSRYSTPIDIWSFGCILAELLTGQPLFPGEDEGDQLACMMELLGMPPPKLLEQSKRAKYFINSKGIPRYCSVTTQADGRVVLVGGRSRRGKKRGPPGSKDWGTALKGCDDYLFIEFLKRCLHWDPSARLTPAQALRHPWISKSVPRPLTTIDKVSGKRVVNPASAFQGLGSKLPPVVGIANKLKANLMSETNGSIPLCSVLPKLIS

O=C1N[C@@H]2COC[C@@H]2N1c1nc2c3c(ccc2s1)OCC3	≥ 1000 nM
O=C1N[C@H]2CCNCC[C@H]2N1c1nc2c3c(ccc2s1)OCC3	10 to 100 nM
CN1CC[C@@H]2[C@H](C1)NC(=O)N2c1nc2c3c(ccc2s1)OCO3 (racemic)	100 to 1000 nM

Challenge: // query IC50 value for entry C[C@H]1C[C@@H]2[C@H](CO1)NC(=O)N2c1nc2c3c(ccc2s1)OCC3
Response given: 100 to 1000 nM

Challenge: How about C[C@H]1[C@H]2NC(=O)N(c3nc4c5c(ccc4s3)OCC5)C2CCN1C (some centres unmarked) ?
Response given: 10 to 100 nM

Challenge: Check O=C1NC2CCN(CCO)CC2N1c1nc2c3c(ccc2s1)OCC3 (centres unmarked) too.
Response given: ≥ 1000 nM

Challenge: Same question, O=C1N[C@H]2CCNC[C@H]2N1c1nc2c3c(ccc2s1)OCC3 (relative stereo) this time
Response given: 100 to 1000 nM

Challenge: One more molecule: O=C1N[C@H]2CCN(C3CCC3)C[C@H]2N1c1nc2c3c(ccc2s1)OCC3 (racemic)
Response given: ≥ 1000 nM
